target: cruzain (Trypanosoma cruzi); experiment: biochemical; conditions: calculated from global fitting to eq 6; read-out: Ki*
pKi: −log10 of the molar value.

structure notation	pKi
C[n+]1ccccc1/C=C/[C@H](CCc1ccccc1)NC(=O)[C@H](Cc1ccccc1)NC(=O)OCc1ccccc1	6.22

====

system: T. b. brucei bloodstream forms; test: Growth of axenic cultures of T. b. brucei bloodstream forms (BSFs); conditions: read-out: EC50 T. b. brucei BSF; axenic culture
pEC50: −log10 of the molar value.
The reader will find reported pEC50 values listed item by item below.

molecule	test target	pEC50
CCC(=O)OC1Oc2ccccc2C[C@@H]1NC(=O)[C@H](Cc1ccccc1)NC(=O)N1CCN(C)CC1 (stereo partly shown) [Compound 38]	T. b. brucei bloodstream forms	5.51
O=C(N[C@@H](Cc1ccccc1)C(=O)N[C@H]1Cc2ccccc2OC1O)OCc1ccccc1 (stereo partly shown) [Compound 30]	T. b. brucei bloodstream forms	5.17
CN1CCN(C(=O)NC(Cc2ccccc2)C(=O)NC2Cc3ccccc3OC2O)CC1 (stereo not shown) [Compound 36]	T. b. brucei bloodstream forms	6.22
C[n+]1ccccc1/C=C/[C@H](CCc1ccccc1)NC(=O)[C@H](Cc1ccccc1)NC(=O)OCc1ccccc1 [Compound 15]	T. b. brucei bloodstream forms	5.55
CN1CCN(C(=O)N[C@@H](Cc2ccccc2)C(=O)N[C@H](/C=C/S(=O)(=O)c2ccccc2)CCc2ccccc2)CC1 [Compound K11777, reference compound]	T. b. brucei bloodstream forms	7.05
CCOC1Oc2ccccc2C[C@@H]1NC(=O)[C@H](Cc1ccccc1)NC(=O)N1CCN(C)CC1 (stereo partly shown) [Compound 40]	T. b. brucei bloodstream forms	4.92
O=C(NC(Cc1ccccc1)C(=O)NC1Cc2cc(F)ccc2OC1O)OCc1ccccc1 (stereo not shown) [Compound 34]	T. b. brucei bloodstream forms	5.57
CC(=O)OC1Oc2ccccc2C[C@@H]1NC(=O)[C@H](Cc1ccccc1)NC(=O)N1CCN(C)CC1 (stereo partly shown) [Compound 37]	T. b. brucei bloodstream forms	5.43
CC(C)C(=O)OC1Oc2ccccc2C[C@@H]1NC(=O)[C@H](Cc1ccccc1)NC(=O)N1CCN(C)CC1 (stereo partly shown) [Compound 39]	T. b. brucei bloodstream forms	5.40
CC(C)OC1Oc2ccccc2C[C@@H]1NC(=O)[C@H](Cc1ccccc1)NC(=O)N1CCN(C)CC1 (stereo partly shown) [Compound 41]	T. b. brucei bloodstream forms	4.85

====

The reader will find reported CC50 values listed item by item below.
tested on: human dermal fibroblasts; test: Human cell toxicity, resazurin viability; format: cell-based; conditions: human dermal fibroblasts; read-out: Human Cell Cytotoxicity CC50

molecule	CC50
O=C(N[C@@H](Cc1ccccc1)C(=O)N[C@H](/C=C/c1ncccn1)Cc1ccccc1)OCc1ccccc1	> 100 µM
O=C(N[C@@H](Cc1ccccc1)C(=O)N[C@H](/C=C/c1ccccn1)CCc1ccccc1)OCc1ccccc1	> 100 µM
O=C(N[C@@H](Cc1ccccc1)C(=O)N[C@H](/C=C/c1ccccn1)Cc1ccccc1)OCc1ccccc1	> 100 µM
CN1CCN(C(=O)N[C@@H](Cc2ccccc2)C(=O)N[C@H](/C=C/S(=O)(=O)c2ccccc2)CCc2ccccc2)CC1 [Compound K11777, reference compound]	60 to 100 µM
O=C(N[C@@H](Cc1ccccc1)C(=O)N[C@H](/C=C/c1ncco1)Cc1ccccc1)OCc1ccccc1	> 100 µM

====

molecular target: cruzain (Trypanosoma cruzi, UniProt P25779); experiment: biochemical; details: apparent tight-binding inhibition constant; 25° C., pH 7.5; read-out: Ki*
Sequence (P25779 123-467 limits assumed): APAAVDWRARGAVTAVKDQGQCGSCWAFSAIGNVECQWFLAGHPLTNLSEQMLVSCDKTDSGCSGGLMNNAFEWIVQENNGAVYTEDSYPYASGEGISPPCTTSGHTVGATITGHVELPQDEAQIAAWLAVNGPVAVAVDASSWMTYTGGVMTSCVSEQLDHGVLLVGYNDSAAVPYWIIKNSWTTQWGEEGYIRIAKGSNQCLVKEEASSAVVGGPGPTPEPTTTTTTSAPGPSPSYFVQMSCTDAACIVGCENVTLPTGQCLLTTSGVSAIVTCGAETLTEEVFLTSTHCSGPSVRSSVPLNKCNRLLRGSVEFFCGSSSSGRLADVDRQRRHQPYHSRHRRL
Returns: string. Value is 1.0 if measured Ki is below 700 nM, and 0.0 if it is greater than or equal to it.

molecule	label class
CC(=O)OC1Oc2ccccc2C[C@@H]1NC(=O)[C@H](Cc1ccccc1)NC(=O)N1CCN(C)CC1 (some centres unmarked)	0.0
C[C@@H](/C=C/c1ncccn1)NC(=O)[C@H](Cc1ccccc1)NC(=O)OCc1ccccc1	0.0
O=C(N[C@@H](Cc1ccccc1)C(=O)N[C@H](/C=C/c1ncccn1)Cc1ccccc1)OCc1ccccc1	1.0
CC(C)C[C@H](NC(=O)OCc1ccccc1)C(=O)N[C@H](/C=C/c1ccccn1)CCc1ccccc1	0.0
C[n+]1ccsc1/C=C/[C@H](Cc1ccccc1)NC(=O)[C@H](Cc1ccccc1)NC(=O)OCc1ccccc1.[I-]	0.0
C[C@@H](/C=C/c1ccccn1)NC(=O)[C@H](Cc1ccccc1)NC(=O)OCc1ccccc1	0.0
C[n+]1ccccc1/C=C/[C@H](CCc1ccccc1)NC(=O)[C@H](Cc1ccccc1)NC(=O)OCc1ccccc1	1.0
CN1CCN(C(=O)N[C@@H](Cc2ccccc2)C(=O)N[C@H](/C=C/c2ccccn2)CCc2ccccc2)CC1	0.0
O=C(N[C@@H](Cc1ccccc1)C(=O)N[C@H](/C=C/c1nccs1)Cc1ccccc1)OCc1ccccc1	0.0
CC(C)OC1Oc2ccccc2C[C@@H]1NC(=O)[C@H](Cc1ccccc1)NC(=O)N1CCN(C)CC1 (some centres unmarked)	0.0
O=C(N[C@@H](Cc1ccccc1)C(=O)N[C@H](/C=C/c1cc(C(F)(F)F)ccn1)CCc1ccccc1)OCc1ccccc1	1.0
O=C(N[C@@H](Cc1ccccc1)C(=O)N[C@H](/C=C/c1ccccc1)Cc1ccccc1)OCc1ccccc1	0.0
O=C(N[C@@H](Cc1ccccc1)C(=O)N[C@H](/C=C/c1ccc([N+](=O)[O-])cc1)Cc1ccccc1)OCc1ccccc1	1.0

====

biological target: cruzain (Trypanosoma cruzi, UniProt P25779); test: biochemical; conditions: obtained >10 minutes following initiation of reaction by addition of enzyme; pH 7.5; read-out: Ki* Cruzain
pKi: −log10 of the molar value. Non-standard residues stand in square brackets, D forms with d. Residues, ends and D or L forms follow the SMILES beside them. *: point of attachment. Phe(2-OMe) = COc1ccccc1C[C@H](N)C(=O)O; Cbz = O=C(OCc1ccccc1)*
observable: pKi

molecule	test target	bound sign	experimental result
O=C[C@H](Cc1ccccc1)NC(=O)[C@H](Cc1ccccc1)NC(=O)OCc1ccccc1 [Compound 28] (Cbz-Phe-Phe-aldehyde)	cruzain (Trypanosoma cruzi, UniProt P25779)	=	9.36
Cc1ccc2c(c1)C[C@H](NC(=O)[C@H](Cc1ccccc1)NC(=O)OCc1ccccc1)C(O)O2 (some centres unmarked) [Compound 32]	cruzain (Trypanosoma cruzi, UniProt P25779)	=	6.99
COc1ccc2c(c1)CC(NC(=O)C(Cc1ccccc1)NC(=O)OCc1ccccc1)C(O)O2 (centres unmarked) [Compound 31]	cruzain (Trypanosoma cruzi, UniProt P25779)	=	6.46
O=C(N[C@@H](Cc1ccccc1)C(=O)N[C@H](CO)Cc1ccccc1O)OCc1ccccc1 [Compound 51]	cruzain (Trypanosoma cruzi, UniProt P25779)	<	5.00
CC(C)OC1Oc2ccccc2C[C@@H]1NC(=O)[C@H](Cc1ccccc1)NC(=O)N1CCN(C)CC1 (some centres unmarked) [Compound 41]	cruzain (Trypanosoma cruzi, UniProt P25779)	<	5.30
CN1CCN(C(=O)NC(Cc2ccccc2)C(=O)NC2Cc3ccccc3OC2O)CC1 (centres unmarked) [Compound 36]	cruzain (Trypanosoma cruzi, UniProt P25779)	=	7.33
COc1ccccc1C[C@@H](C=O)NC(=O)[C@H](Cc1ccccc1)NC(=O)OCc1ccccc1 [Compound 29] (Cbz-Phe-[Phe(2-OMe)]-aldehyde)	cruzain (Trypanosoma cruzi, UniProt P25779)	=	7.66
CN1CCN(C(=O)N[C@@H](Cc2ccccc2)C(=O)N[C@H](C=O)CCc2ccccc2)CC1 [Compound 52]	cruzain (Trypanosoma cruzi, UniProt P25779)	=	9.30
O=C(NC(Cc1ccccc1)C(=O)NC1Cc2cc(F)ccc2OC1O)OCc1ccccc1 (centres unmarked) [Compound 34]	cruzain (Trypanosoma cruzi, UniProt P25779)	=	7.32
O=C(NC(Cc1ccccc1)C(=O)NC1Cc2cc(Cl)ccc2OC1O)OCc1ccccc1 (centres unmarked) [Compound 33]	cruzain (Trypanosoma cruzi, UniProt P25779)	=	7.13
O=C(N[C@@H](Cc1ccccc1)C(=O)N[C@H]1Cc2ccccc2OC1O)OCc1ccccc1 (some centres unmarked) [Compound 30]	cruzain (Trypanosoma cruzi, UniProt P25779)	=	7.31
CCC(=O)OC1Oc2ccccc2C[C@@H]1NC(=O)[C@H](Cc1ccccc1)NC(=O)N1CCN(C)CC1 (some centres unmarked) [Compound 38]	cruzain (Trypanosoma cruzi, UniProt P25779)	<	5.30
CC(C)C(=O)OC1Oc2ccccc2C[C@@H]1NC(=O)[C@H](Cc1ccccc1)NC(=O)N1CCN(C)CC1 (some centres unmarked) [Compound 39]	cruzain (Trypanosoma cruzi, UniProt P25779)	<	5.30
COC(=O)c1ccc2c(c1)CC(NC(=O)C(Cc1ccccc1)NC(=O)OCc1ccccc1)C(O)O2 (centres unmarked) [Compound 35]	cruzain (Trypanosoma cruzi, UniProt P25779)	=	7.74
O=C(N[C@@H](Cc1ccccc1)C(=O)N[C@H](/C=C/S(=O)(=O)c1ccccc1)Cc1ccccc1)OCc1ccccc1 [Compound 1]	cruzain (Trypanosoma cruzi, UniProt P25779)	=	8.44

====

biological target: cruzain (Trypanosoma cruzi, UniProt P25779); assay: Kinetic parameters of peptide substrates for cruzain; format: biochemical; details: pH 7.5, 25° C., 10% DMSO
Non-standard residues stand in square brackets, D forms with d. Residues, ends and D or L forms follow the SMILES beside them. *: point of attachment. hPhe = N[C@@H](CCc1ccccc1)C(=O)O; 4Pal = N[CH](Cc1ccncc1)C(=O)O; AMC = Cc1cc(=O)oc2cc(N*)ccc12; Cbz = O=C(OCc1ccccc1)*

compound	Km / µM
Cc1cc(=O)oc2cc(NC(=O)C(CCc3ccccc3)NC(=O)C(CCCN=C(N)N)NC(=O)OCc3ccccc3)ccc12 (stereo not shown)	6.8
Cc1cc(=O)oc2cc(NC(=O)[C@H](CCc3ccccc3)NC(=O)[C@H](Cc3ccncc3)NC(=O)OCc3ccccc3)ccc12 [Compound S8, Cbz-(4-Pyr)Ala-hPhe-AMC] (Cbz-[4Pal]-[hPhe]-{AMC})	4.6
Cc1cc(=O)oc2cc(NC(=O)[C@H](CCCN=C(N)N)NC(=O)[C@H](CC(C)C)NC(=O)OCc3ccccc3)ccc12	2.2
Cc1cc(=O)oc2cc(NC(=O)[C@H](CCCN=C(N)N)NC(=O)[C@H](Cc3ccccc3)NC(=O)OCc3ccccc3)ccc12 [Compound S1, Cbz-Phe-Arg-AMC] (Cbz-Phe-Arg-{AMC})	0.89
Cc1cc(=O)oc2cc(NC(=O)C(Cc3ccncc3)NC(=O)C(Cc3ccccc3)NC(=O)OCc3ccccc3)ccc12 (stereo not drawn) [Compound S5, Cbz-Phe-(4-Pyr)Ala-AMC] (Cbz-Phe-[4Pal]-{AMC}; configuration not given here)	3.7
Cc1cc(=O)oc2cc(NC(=O)[C@H](CCc3ccccc3)NC(=O)[C@H](Cc3ccccc3)NC(=O)OCc3ccccc3)ccc12 [Compound S2, Cbz-Phe-hPhe-AMC] (Cbz-Phe-[hPhe]-{AMC})	0.26
Cc1cc(=O)oc2cc(NC(=O)[C@H](Cc3ccccc3)NC(=O)[C@H](Cc3ccccc3)NC(=O)N3CCN(C)CC3)ccc12 [Compound S11, NMePip-Phe-Phe-AMC]	14

This collection of values is drawn from patent US20240150396A1.
